Target: T1, P26 (human, UniProt P02771 381-609, limits assumed)
T1 construct: also called AFP p26
T1 sequence: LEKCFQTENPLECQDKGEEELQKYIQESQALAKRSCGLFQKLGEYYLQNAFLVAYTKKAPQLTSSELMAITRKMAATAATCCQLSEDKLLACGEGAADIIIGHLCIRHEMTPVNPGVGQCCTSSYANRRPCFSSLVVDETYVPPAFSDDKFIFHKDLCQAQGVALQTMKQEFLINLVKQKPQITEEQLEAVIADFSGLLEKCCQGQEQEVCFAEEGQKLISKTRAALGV
Test: ELISA, format not described
Set-up: unit not given here
Experimental Readout: ELISA_avg

| Binder | Experimental Readout | Recorded Value |
| --- | --- | --- |
| D domain SEQ ID NO: 955 (designed binder) MGSWYLFKTELAAIKYRLEALGGSEAELASFEYEIAWFEHILQFYKGKGNPEVEALRKEAAAIRDELQAYRHN | ELISA_avg | 20.1 |
| D domain SEQ ID NO: 907 (designed binder) MGSWIEFKYRLDAIEWRLEALGGSEAELAAFEKEIAAFESELQAYKGKGNPEVESLRIHAAAIRTWLQAYRHN | ELISA_avg | 18.3 |
| D domain SEQ ID NO: 920 (designed binder) MGSWSEFTDRLFAIEDRLLALGGSEAELAAFEKEIAAFESELQAYKGKGNPEVEDLRMHAASIRLWLQAYRHN | ELISA_avg | 25.4 |
| D domain SEQ ID NO: 884 (designed binder) MGSWYEFVVRLFAIDERLWALGGSEAELAAFEKEIAAFESELQAYKGKGNPEVESLREHAAHIRSWLQAYRHN | ELISA_avg | 18.2 |
| D domain SEQ ID NO: 923 (designed binder) MGSWFEFSDRLYAIWERLDALGGSEAELAAFEKEIAAFESELQAYKGKGNPEVESLRFQAAFIRYQLQAYRHN | ELISA_avg | 19 |
| D domain SEQ ID NO: 919 (designed binder) MGSWVEFYHRLDAIFDRLDALGGSEAELAAFEKEIAAFESELQAYKGKGNPEVEELRANAAGIRSWLQAYRHN | ELISA_avg | 20 |
| D domain SEQ ID NO: 881 (designed binder) MGSWVEFVGRLNAIDARLWALGGSEAELAAFEKEIAAFESELQAYKGKGNPEVEELRHHAAEIRNWLQAYRHN | ELISA_avg | 26 |
| D domain SEQ ID NO: 925 (designed binder) MGSWHEFSERLFAIWTRLEALGGSEAELAAFEKEIAAFESELQAYKGKGNPEVEALRQSAAFIRVMLQAYRHN | ELISA_avg | 8.21 |
| D domain SEQ ID NO: 858 (designed binder) MGSWSEFIFRLDAIHSRLQALGGSEAELAAFEKEIAAFESELQAYKGKGNPEVEYLRFIAAEIRLKLQAYRHN | ELISA_avg | 28.3 |
| D domain SEQ ID NO: 917 (designed binder) MGSWVEFYHRLEAIEQRLMALGGSEAELAAFEKEIAAFESELQAYKGKGNPEVESLREQAAAIRSWLQAYRHN | ELISA_avg | 28.5 |
| D domain SEQ ID NO: 956 (designed binder) MGSWYWFKYELAEIKWHLEALGGSEAELAHFEHSIAVFESQLQQYKGKGNPEVEALRKEAAAIRDELQAYRHN | ELISA_avg | 21.5 |
